tested on: RPMI-8226 leukemia; assay: NCI tumour cell line growth inhibition, 48 h
In this section, each of the compounds is paired with its reported TGI.

Reported TGI for CCN1c2nc3ccccc3nc2N(CC)c2nc3ccccc3nc21 was > 100 µM

Further cases:
Data point: CC(C)(C)N1CC2(CCCCC2)C1=O ; TGI = > 100 µM

COc1ccc2c(c1)CN1C(=N2)CSC1c1cc([N+](=O)[O-])ccc1Cl (stereo unspecified) yielded TGI of 72.3 µM

Form field TGI, entry CC(=O)Oc1ccccc1C(=O)N=C1[Se]CCCN1C(=O)c1ccccc1OC(C)=O : 6.13 µM

----------
test system: K-562 leukemia; experiment: NCI tumour cell line growth inhibition, 48 h
Listing: TGI of selected compounds

Look over these answered cases.
Measured TGI of O=C(NCCCNC(=O)c1ccc2c(O)c(O)ccc2c1)c1ccc2c(O)c(O)ccc2c1 : > 78.7 µM

The reported TGI of the compound CCC1OC2C(CC=C(C)C)=C3OC(C)(O)C(C)(CC)C(OC(=O)c4ccccc4)C3=C3OC(=O)C=C1C32 (stereo not given) was > 100 µM

Please fill in: TGI reported for CN=NN(C)C(=O)NC = > 100 µM

# TGI (compound: C#C[C@]1(O)CC[C@H]2[C@@H]3CC=C4c5sc(Nc6ccccc6)nc5CC[C@]4(C)[C@H]3CC[C@@]21C ) is > 100 µM

compound O=C(CSc1nnc(-c2ccccc2NC(=O)C(F)(F)F)c(=O)[nH]1)NC(=O)Nc1ccccc1 , TGI observed: > 100 µM

Next:
Notebook: C/C(=C1/CCCC2(N=NCC2c2ccccc2)C1=O)c1ccccc1 (stereo not given) , TGI read as 41.4 µM

TGI for N#Cc1c(-c2ccccc2)[nH]c2ccccc2c1=O is > 100 µM

Lab note: COc1ccc(/C=c2/sc3n(c2=O)C(c2ccc(OC)c(OC)c2)C2=C(N=3)c3cc(F)ccc3OC2)cc1 (stereo not given) gave TGI of > 100 µM

Record C=CCn1c(=O)n(CC=C)c(=O)n(CC=C)c1=O , field TGI: > 100 µM

Just so you know, measured TGI for O=C1CSC(Cc2nc3ccccc3[nH]2)=N1 came out at > 100 µM

----------
system: 786-0 renal
# output must be one of 1 (active), -1 (inactive)

Use the examples below as a reference point.
Task item: Test call, this molecule: O=C(CN(C1CCCCC1)C1CCCCC1)Nc1ccc(S(=O)(=O)c2ccc(NC(=O)CN(C3CCCCC3)C3CCCCC3)cc2)cc1
Reply: -1

Task item: Test call, this molecule: CC(=O)Oc1ccccc1C(=O)N=C1[Se]CCCN1C(=O)c1ccccc1OC(C)=O
Reply: -1

Task item: Call for entry COc1cc(NC(C)CCCN)c2nccc(C)c2c1OC (stereo not drawn) :
Reply: -1

Task item: What classification did OCCCCC#Cc1ccccc1C#Cc1cccc(O)c1 end up with in this test?
Reply: -1

Task item: For Cc1c(C2Nc3ccccc3C2C)[nH]c2ccccc12 (stereo not drawn) , what call appears in the results of this test?
Reply: -1

Task item: What was the test verdict on O=C(Nc1ccc(Cl)cc1F)c1cc(Br)ccc1O ?
Reply: -1

Task item: What is the recorded call for this molecule in the test? Cc1[nH][nH]c(=O)c1C=Nc1ccc(-c2nc3ccccc3[nH]2)cc1
Reply: -1

Task item: GET /call?item= O=C1c2ccn(CCCCNC(CO)(CO)CO)c2C(=O)c2c1c(O)c1ccccc1c2O returns the recorded outcome of this test.
Reply: -1

Please look at the following molecule next.
Task item: So what was the verdict on CC(=O)Oc1ccccc1C(=O)N=C1[Se]CCN1C(=O)c1ccccc1OC(C)=O in this test?
Reply: -1

----------
tested on: SW-620 colon; assay: NCI tumour cell line growth inhibition, 48 h
ENDPOINT: TGI

Some solved cases for reference:
get_value(item= CC1=C(C(=O)Nc2c(C)cccc2C)C(c2ccccc2Cl)C(C(=O)Nc2c(C)cccc2C)=C(C)N1 , readout=TGI) returns > 100 µM

Entry CCN1C(=O)N(CC)C2C1NC(=S)N2/N=C/C=C/c1cccs1 (stereo not given) ; TGI = > 100 µM

// COC(=O)/C=C/C1C(C(=O)OC)C2(C(=O)OC)CCC1(C(=O)OC)N2 (stereo not given) : TGI value = > 100 µM

With those in mind, consider the next compound.
// recorded TGI for Cc1ccc(Nc2nc(N)c(C(=O)c3ccc(C#N)cc3)s2)cc1 : > 100 µM

----------
test system: SK-MEL-5 melanoma; experiment: NCI tumour cell line growth inhibition, 48 h
ENDPOINT: TGI (µM)
Entry rule: numbers only, all in µM.

TGI reported for this compound Cc1ccc(S(=O)(=O)C2=Cc3ccc(C(F)(F)F)cc3C2(O)c2cccc(C(F)(F)F)c2)cc1 (centres undefined) : 3.35

Lookup result for COc1ccc(C2C(C#N)=C(N)OC3=C2COc2ccc(F)cc23)cc1OC (centres undefined) ; measured TGI: 44.9

Reported TGI for COc1ccc(C[N+]23C(CC[C@H]2c2ccccc2)CC[C@H]3c2ccccc2)cc1 (some centres undefined) was 15.7

----------
Each entry below carries its reported TGI.
system: NCI-H522 lung; test: NCI tumour cell line growth inhibition, 48 h

The recorded TGI for entry COc1ccc2c(c1)CCc1c-2[nH]c2ccc(OC)cc12 equals > 100 µM

In plain terms, CC1(C)OCC2OC3(c4nc(C#N)c(N)o4)OC(C)(C)OC3C2O1 (stereo unspecified) has a documented TGI of > 100 µM

Record N#Cc1sc2nc(/C=C3/C=CC=CC3=O)c(O)n2c1N , field TGI: > 100 µM

Reported TGI ( OCC1OC(n2cnc3c2NC=NC[C@H]3O)C(O)C1O (stereo partly specified) ) = > 450 µM

// TGI value for N#C/C(=C\c1ccc(O)c(O)c1)C(N)=O : 53.3 µM

Query Cn1ccc(C(=O)NCCOCCNC(=O)c2ccn(C)c(=O)c2O)c(O)c1=O yields TGI of > 100 µM

---
Item: COC(=O)C1=C(C)NC(C)=C(C(=O)OC)C1c1ccc(/[N+]([O-])=C/c2ccccc2)cc1 | TGI: 27.9 µM

Notebook: CO[C@H]1[C@@H](O)[C@@H](C)O[C@@H](O[C@H]2CC[C@@]3(C)[C@H](CC[C@@H]4[C@@H]3CC[C@]3(C)[C@@H](C5=CC(=O)OC5)[C@@H](OC(C)=O)C[C@]43O)C2)[C@@H]1O , TGI read as 0.0368 µM

Form field TGI, entry CC(=O)OCC1OC(Nc2ncc(-c3ccc(C)cc3)s2)C(OC(C)=O)C(OC(C)=O)C1OC(C)=O (stereo unspecified) : > 100 µM

Entry COc1ccc2c(c1C)C(=O)C(O)(CC=C(C)C)O2 (stereo unspecified) — recorded TGI = > 100 µM

For CC12CCC(C(=O)OC1=O)C2(C)C (stereo unspecified) the compound record lists TGI as > 100 µM

----------
tested on: MDA-MB-231 breast; assay: NCI tumour cell line growth inhibition, 48 h
ENDPOINT: TGI

Sample records with TGI:
The molecule COC(=O)[C@@H](NC(=O)[C@@H](OC)[C@@H]1Cc2cc3cc(OC4CC(OC5CC(O)C(O)C(C)O5)C(O)C(C)O4)c(C)c(O)c3c(O)c2C(=O)[C@H]1OC1CC(OC2CC(OC3CC(C)(O)C(O)C(C)O3)C(O)C(C)O2)C(O)C(C)O1)C(C)C (some centres not stated) showed TGI equal to 19.9 µM

Documented TGI of CCN(CC)CCn1nc(N)c2nc3cc(Cl)ccc3nc21 : > 100 µM

Short answer for CC(=O)Oc1ccccc1C(=O)N=C1[Se]CCN1C(=O)c1ccccc1OC(C)=O : TGI was 3.06 µM

According to the records, this molecule O=C(O)c1c(-c2nccc3ccccc23)[nH]c(-c2ccccc2)c1S(=O)(=O)O displays TGI of > 100 µM

response.value for N#CC(C(=O)/C(=N/Nc1nc(=S)[nH]n1N)C(C#N)c1ccccc1)c1ccccc1 (configuration not stated) (field: TGI) = > 100 µM

The measured TGI associated with O=C(O)c1cc(O)c2c(c1)C(C1c3cc(C(=O)O)cc(O)c3C(=O)c3c(OC4OC(CO)C(O)C(O)C4O)cccc31)c1cccc(OC3OC(CO)C(O)C(O)C3O)c1C2=O (configuration not stated) reads > 100 µM

Briefly, TGI measured for CN(C)C1=Nc2ccccc2C(=S)N2CSCC12 (configuration not stated) : > 100 µM

# TGI of Cc1cccc2c1Oc1cc(Cl)ccc1C2NC(=O)CCN1CCOCC1 (configuration not stated) = > 100 µM

Further cases:
Lab note: measured TGI of Cc1cc(C)cc(C(=N)c2ccccc2Cc2cccc3ccccc23)c1 was > 100 µM

Measured TGI of CO[C@H]1[C@@H](O)[C@@H](C)O[C@@H](O[C@H]2CC[C@@]3(C)[C@H](CC[C@@H]4[C@@H]3CC[C@]3(C)[C@@H](C5=CC(=O)OC5)[C@@H](OC(C)=O)C[C@]43O)C2)[C@@H]1O : 0.972 µM

Item: CN(C)c1ccc2nc3ccc(=O)cc-3sc2c1 | TGI: > 45.4 µM

The molecule listed as N#CC(NNC(=O)Cc1ccccc1)c1ccccc1O (configuration not stated) shows TGI equal to > 72 µM

Entry under test: O=c1c(-c2ccccc2)c(SCCCN2CCN(c3cccc(Cl)c3)CC2)n(-c2ccccc2)c(=S)n1-c1ccccc1 . Its TGI was > 100 µM

Value of measured TGI for the entry COc1cc(/C=C2\C(=O)Nc3ccc(F)cc32)cc(OC)c1OC : 36.3 µM

TGI reading for C[C@H]1[C@H](C)CC[C@]2(C)CC[C@]3(C)C(=C[C@@H](O)[C@@H]4[C@@]5(C)[C@H](O)[C@@H](O)[C@H](O)C(C)(C)[C@@H]5CC[C@]43C)[C@H]12 : > 100 µM

Lab note: measured TGI of Cc1ccc2nc(-c3ccc(N)c(I)c3)sc2c1 was > 100 µM

Reported TGI of N#CC1(C2SCCS2=O)C2=C(C(=O)c3ccccc3C2=O)N2CCCC21 (configuration not stated) : 9.21 µM
